System: Fibroblast
Experiment: Multiplex assay against human fibroblast
Format: toxicity, cell-based
Conditions: 24 h, 10 µM, compound concentration 10 uM, replicate 1
Measured endpoint: Population Mitochondria Different-Phenotype (%)
Number in %, nothing else.

Reported Population Mitochondria Different-Phenotype (%) of Cc1cc(O)c(-c2ccc([C@@H](C)CN(C)C)cc2)c2c1[nH]c(=O)c1sccc12 : 42

The compound CN1CCC(C(=O)c2cccc(NC(=O)c3c(F)cc(F)cc3F)n2)CC1 showed Population Mitochondria Different-Phenotype (%) equal to 6

Population Mitochondria Different-Phenotype (%) for CSc1nc(NC2CCCC2)c([N+](=O)[O-])c(NC2CCCC2)n1 is 4

Notebook: Cl.Cl.OCCOCCN1CCN(C(c2ccccc2)c2ccc(Cl)cc2)CC1 (configuration not stated) [HYDROXYZINE HYDROCHLORIDE] , Population Mitochondria Different-Phenotype (%) read as 10

get_value(item= COCCn1c(C)c(C)s/c1=N\C(=O)C1C(C)(C)C1(C)C , readout=Population Mitochondria Different-Phenotype (%)) returns 15

GET /value?item= CN(C)C(=O)Cn1cc(-c2ccc(-c3nnc4ccccn34)cc2)cn1 &field=Population Mitochondria Different-Phenotype (%) returns 5

Summary for this compound, COc1cc2nc(N3CCN(C(=O)c4ccco4)CC3)nc(N)c2cc1OC.Cl [PRAZOSIN HYDROCHLORIDE] : Population Mitochondria Different-Phenotype (%) is 6

* * *

Test system: Fibroblast
Assay: Multiplex assay against human fibroblast
Format: toxicity, cell-based
Conditions: 48 h, 1 µM, compound concentration 1 uM, replicate 2
Non-standard residues stand in square brackets, D forms with d. Residues, ends and D or L forms follow the SMILES beside them.
Label scheme for Population Mitochondria Different-Phenotype (%): lower than 10% is class 0, 10% and above is class 1.

Query string: Exam item: decide whether the reported Population Mitochondria Different-Phenotype (%) for C[C@@H]1CC(=O)Nc2cccc(-c3ccc4c(c3)c(-c3cnn(C)c3)nn4C)c2N1 is at least 10%.
Result string: class 0

Query string: # bool: Population Mitochondria Different-Phenotype (%) of COc1c(Nc2ccc(S(C)(=O)=O)nc2C)ncnc1OC1CCN(C(=O)OC(C)C)CC1 >= 10%
Result string: class 0

Query string: Can O=C(NCCNCC(O)COc1ccc(O)cc1)N1CCOCC1.O=C(NCCNCC(O)COc1ccc(O)cc1)N1CCOCC1.O=C(O)/C=C/C(=O)O (stereo not drawn) [XAMOTEROL FUMARATE] be said to have Population Mitochondria Different-Phenotype (%) at or above 10%?
Result string: class 0

Query string: API: above_or_equal(metric=Population Mitochondria Different-Phenotype (%), cutoff=10%) for item Cc1cc(O)c(-c2ccc([C@@H](C)CN(C)C)cc2)c2c1[nH]c(=O)c1sccc12
Result string: class 1

Query string: Does the reported Population Mitochondria Different-Phenotype (%) for Cc1cc(=O)n(C)c2cc(N3C(=O)CC[C@H](NS(=O)(=O)CC(C)C)[C@H]3c3ccc(Cl)cc3)ccc12 fall at or above the 10% mark?
Result string: class 0

Query string: Can CN1C[C@H](C(=O)N[C@]2(C)O[C@@]3(O)[C@@H]4CCCN4C(=O)[C@H](Cc4ccccc4)N3C2=O)C[C@@H]2c3cccc4[nH]cc(c34)C[C@H]21.CS(=O)(=O)O [DIHYDROERGOTAMINE MESYLATE] be said to have Population Mitochondria Different-Phenotype (%) at or above 10%?
Result string: class 0

Query string: Is Population Mitochondria Different-Phenotype (%) for CC(C)(O)C(=O)N1CCN(c2ccc(C(F)(F)F)c(C3=C(c4c[nH]c5ccccc45)C(=O)NC3=O)c2)CC1 at or above 10%?
Result string: class 1

Query string: Test whether the compound Cc1ccc(OCC(O)C(C)NC(C)C)c2c1CCC2.Cl (stereo not drawn) records Population Mitochondria Different-Phenotype (%) of 10% or higher.
Result string: class 0

Query string: Decide: is the reported value of Population Mitochondria Different-Phenotype (%) for CN(C)C/C=C/C(=O)Nc1ccc(C(=O)N2CCCC(Nc3ncc(Cl)c(-c4c[nH]c5ccccc45)n3)C2)cc1 (stereo not drawn) equal to or greater than 10%?
Result string: class 1

Query string: Is the recorded value of Population Mitochondria Different-Phenotype (%) equal to or greater than 10% for this compound? O=c1ccc2ccc(OCCCCN3CCN(c4cccc5sccc45)CC3)cc2[nH]1
Result string: class 0

Query string: Could you tell me if the measured Population Mitochondria Different-Phenotype (%) of COc1cc(C(=O)N2CC[C@@H](O)[C@@H](N)C2)cc2nc(-c3cc4ccccc4n3CC3CC3)n(C)c12.Cl reaches 10% or more?
Result string: class 1

Query string: Please tell me: is the compound OCCCNc1cc(-c2ccnc(Nc3cccc(Cl)c3)n2)ccn1 at or over 10% in terms of Population Mitochondria Different-Phenotype (%)?
Result string: class 1

Query string: Check the entry Cn1cc(C(=O)OCC2CCN(CCNS(C)(=O)=O)CC2)c2ccccc21 : does Population Mitochondria Different-Phenotype (%) equal or exceed 10%?
Result string: class 0

Query string: Given CCC(=O)OCC(=O)[C@@]1(OC(=O)CC)[C@@H](C)C[C@H]2[C@@H]3CCC4=CC(=O)C=C[C@]4(C)[C@@]3(Cl)[C@@H](O)C[C@@]21C [BECLOMETHASONE DIPROPIONATE] , state whether its Population Mitochondria Different-Phenotype (%) is at least 10%.
Result string: class 0

Query string: Does CCn1c(-c2nc3cc(C(=O)N4CCCC(N)C4)ccc3n2C)cc2ccccc21.Cl (stereo not drawn) have a reported Population Mitochondria Different-Phenotype (%) of at least 10%?
Result string: class 1

Query string: Confirm if Population Mitochondria Different-Phenotype (%) reported for the compound COCCCN1CCC(NC(=O)c2cc(Cl)c(N)c3c2OCC3)CC1 [PRUCALOPRIDE] is 10% or above.
Result string: class 0

Query string: Determine whether measured Population Mitochondria Different-Phenotype (%) meets or exceeds 10% for CC(C)(C)c1ccc(CSc2cnn(C(C)(C)C)c(=O)c2Cl)cc1
Result string: class 1

Query string: Entry Cc1c(Cc2ccc3ccccc3n2)c2cc(F)ccc2n1CC(=O)O : is its Population Mitochondria Different-Phenotype (%) no less than 10%?
Result string: class 0

Query string: Entry COc1cc2nc(N3CCN(C(=O)c4ccco4)CC3)nc(N)c2cc1OC.Cl [PRAZOSIN HYDROCHLORIDE] : is its Population Mitochondria Different-Phenotype (%) no less than 10%?
Result string: class 0

Query string: Hi team, for Cc1cc(-c2ccc3c(c2)CC[C@H]3N2CC3(CCN(C(=O)Cc4cn5cc(C)sc5n4)CC3)C2)ncn1 , is the recorded Population Mitochondria Different-Phenotype (%) at or above 10%?
Result string: class 0

Query string: Given the entry CC(C)C[C@@H]1NC(=O)[C@@H](C(C)C)NC(=O)[C@@H]2CCCN2C(=O)[C@@H](CC(=O)O)NC(=O)[C@@H](Cc2c[nH]c3ccccc23)NC1=O [BQ-123] (cyclo(L[dW][dD]P[dV])) , answer whether its Population Mitochondria Different-Phenotype (%) meets or surpasses 10%.
Result string: class 0

* * *

Tested on: U2OS
Test: Multiplex assay against U2OS
Format: toxicity, cell-based
Conditions: human, 12 h, 1 µM, compound concentration 1 uM, replicate 2
Non-standard residues stand in square brackets, D forms with d. Residues, ends and D or L forms follow the SMILES beside them.
Measured endpoint: Population Mitotic Cells (%)
Quick reminder: number only, in %, skip the unit.

Lookup result for Cl.Cl.OCCOCCN1CCN(C(c2ccccc2)c2ccc(Cl)cc2)CC1 (stereo not drawn) [HYDROXYZINE HYDROCHLORIDE] ; measured Population Mitotic Cells (%): 20

get_value(item= C[C@@H]1CC(=O)Nc2cccc(-c3ccc4c(c3)c(-c3cnn(C)c3)nn4C)c2N1 , readout=Population Mitotic Cells (%)) returns 11

Entry Cc1cc(=O)n(C)c2cc(N3C(=O)CC[C@H](NS(=O)(=O)CC(C)C)[C@H]3c3ccc(Cl)cc3)ccc12 , Population Mitotic Cells (%) reported as 36

The recorded Population Mitotic Cells (%) for COc1cc(OC2CCN(C(C)=O)CC2)ccc1C(=O)N1CCC(N2C(=O)OCc3ccccc32)CC1 is 33

Entry O=c1nc2[nH]c3ccccc3nc-2c(=O)[nH]1 ; Population Mitotic Cells (%) = 25

CC(C)C[C@@H]1NC(=O)[C@@H](C(C)C)NC(=O)[C@@H]2CCCN2C(=O)[C@@H](CC(=O)O)NC(=O)[C@@H](Cc2c[nH]c3ccccc23)NC1=O [BQ-123] (cyclo(L[dW][dD]P[dV])) has a reported Population Mitotic Cells (%) of 16

Lab note: measured Population Mitotic Cells (%) of Nc1nc(-c2ccco2)c2cnn(Cc3ccccc3F)c2n1 was 7

Sample CCC(=O)OCC(=O)[C@@]1(OC(=O)CC)[C@@H](C)C[C@H]2[C@@H]3CCC4=CC(=O)C=C[C@]4(C)[C@@]3(Cl)[C@@H](O)C[C@@]21C [BECLOMETHASONE DIPROPIONATE] ; Population Mitotic Cells (%) observed: 28
